Target: Nurr1 (Homo sapiens, UniProt P43354)
Construct: expressed in transfected cells; host or cells: HEK293T
Sequence (P43354 360-595 limits assumed): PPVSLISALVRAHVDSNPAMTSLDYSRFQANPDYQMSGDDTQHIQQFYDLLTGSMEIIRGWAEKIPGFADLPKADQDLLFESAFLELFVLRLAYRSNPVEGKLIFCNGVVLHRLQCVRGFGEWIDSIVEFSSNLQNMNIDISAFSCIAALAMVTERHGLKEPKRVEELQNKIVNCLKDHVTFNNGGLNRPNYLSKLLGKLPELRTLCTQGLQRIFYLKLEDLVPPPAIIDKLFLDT
Assay: Gal4-Nurr1 hybrid reporter gene assay
Format: cell-based
Conditions: Gal4-Nurr1 hybrid reporter gene assay, HEK293T cells; mean ± S.E.M., n ≥ 3
Here the recorded EC50 is given for each entry.
Your answer should be a plain number; it is taken to be in nM.

Some entries whose results are on file:
[2H]C([2H])([2H])Oc1cccc(-c2c(F)c(F)c(NC(=O)c3cscc3-c3n[nH]c(=O)o3)c(F)c2F)c1    17
[2H]C([2H])([2H])Oc1cccc(-c2c(F)c(F)c(NC(=O)c3cscc3-c3nc(=S)on3C)c(F)c2F)c1    900
[2H]C([2H])([2H])Oc1cccc(-c2c(F)c(F)c(NC(=O)c3ccccc3-c3nn[nH]n3)c(F)c2F)c1    140

Turning now to a further compound:
Ask: Reported EC50 for "[2H]C([2H])([2H])Oc1cccc(-c2c(F)c(F)c(NC(=O)c3ccsc3S(N)(=O)=O)c(F)c2F)c1" : what is it?
Result: 1100
